# Test system: NCI-H522 lung
# Protocol description: NCI tumour cell line growth inhibition, 48 h
Measurement label: GI50

Examples from the recorded data:
>  <Compound>
COc1ccc(-n2cc(-c3ccc(OC)c(OC)c3)[nH]c2=O)cc1

>  <System name>
NCI-H522 lung

>  <Meas value>
> 100 µM

$$$$
>  <Compound>
O=C1NC(=NCCc2ccc(Cl)cc2)S/C1=C\c1ccc2ncccc2c1

>  <System name>
NCI-H522 lung

>  <Meas value>
3.41 µM

$$$$
>  <Compound>
Cn1c(COC(=O)NCCn2ccnc2)nc2c(N3CCOCC3)nc(-c3ccccc3)nc21

>  <System name>
NCI-H522 lung

>  <Meas value>
0.352 µM

$$$$

Task: Could you tell me which GI50 is on file for CCCCCCCC(=O)OCC/C=C/C1OC1C1OC(=O)/C=C\C=C\C(=O)N(C(C)=O)C(=O)/C=C(/C)CCC2OC2C1OC(=O)NC(C)=O (centres undefined) ?
Result: 3.78 µM

Task: Param item = CN(C)CCC(=O)Nc1ccc(-n2cc(-c3cccc(NC(=S)Nc4cccc(-c5cn(-c6ccc(NC(=O)CCN(C)C)cc6)nn5)c4)c3)nn2)cc1 ; retrieve measured GI50.
Result: 27.3 µM

---

# System: MOLT-4 leukemia
# Protocol description: NCI tumour cell line growth inhibition, 48 h
Measurement label: TGI

>  <Molecule>
CCCCCC[C@H]([C@H](C)O)n1cnc2c(N)ncnc21

>  <System name>
MOLT-4 leukemia

>  <TGI>
> 100 µM

$$$$

Task: Return reported TGI; argument: O=C1CC23CCCCCCCCCCC2(C1)CC(=O)C3 (stereo unspecified)
Result: 56.2 µM

Task: Would you mind telling me what TGI value was observed for CCOC(=O)Nc1ccc2nc(-c3cscn3)[nH]c2c1 ?
Result: > 100 µM

Task: Which TGI is listed for COc1cccc2c1C(=O)c1c(O)c3c(c(O)c1C2=O)C[C@@](O)(C(C)=O)CC3OC1CC(OC2CC(N)C(O)C(C)O2)C(O)C(C)O1 (stereo partly specified) ?
Result: 7.24 µM

Task: Which TGI value is on record for O=c1c2cccnc2ncn1CCCN1CCCCC1 ?
Result: > 100 µM

Task: I'd like to know its TGI. The molecule in question is CC1=NN(C(=O)CC(=O)Nc2cccc(C)c2)C(=O)C1N=Nc1ccc(S(=O)(=O)CCOS(=O)(=O)O)cc1 (stereo unspecified)
Result: > 31.7 µM

---

# Test system: A498 renal
# Protocol description: NCI tumour cell line growth inhibition, 48 h
Measurement label: TGI (µM)
Give the value in µM but do not write µM after it.

>  <Smiles record>
COc1ccc2[nH]c(C(=O)N3CCN(C(=O)OCc4ccc5c(Cl)cc(Cl)c(O)c5n4)CC3)cc2c1

>  <Meas value>
2.99

$$$$

Note: attention shifts to another entry.
Task: Consider the compound shown here: Nc1cc2c3c(cccc3c1)C(=O)N(CCN1CCCC1)C2=O What is its recorded TGI?
Result: 7.89

---

# Tested on: SN12C renal
# Protocol description: NCI tumour cell line growth inhibition, 48 h; in the data active = GI50 below about 0.43 µM; inactive = the rest
Just give me one of these, please: active, inactive

Task: Outcome logged for CC1=NN(c2cccc(Cl)c2)C(=O)/C1=C\c1cn(CC(O)CN2CCCCC2)c2ccccc12 (stereo not given) in this assay:
Result: inactive

---

Entries annotated with measured TGI
# System: OVCAR-8 ovarian
# Protocol description: NCI tumour cell line growth inhibition, 48 h

Example entries begin here.
>  <Compound>
COc1nc(Cl)nc(N[C@H](C)c2c3ccccc3cc3ccccc23)n1

>  <TGI>
28.4 µM

$$$$
>  <Compound>
O=C(Nc1ccccc1)N1CCN(C(=O)Nc2ccccc2)C1=S

>  <TGI>
> 100 µM

$$$$
>  <Compound>
O=c1[nH]c(C2CCCN2)nc2c1oc1ccc(Cl)cc12 (stereo not given)

>  <TGI>
> 100 µM

$$$$
>  <Compound>
NC(=O)[C@H](Cc1ccc(O)cc1)Nc1c(O)c2c(c(O)c1Cl)C(=O)C=CC2=O

>  <TGI>
> 6.26 µM

$$$$

Task: Field: TGI (OVCAR-8 ovarian). Entry: CC(=O)CC1(CBr)Nc2ccc([N+](=O)[O-])cc2NC1=O (stereo not given)
Result: > 100 µM

Task: Hi! What's the reported TGI for COC1=CC(=O)O/C1=C(\OC)C1OC1c1ccccc1 (stereo not given) on OVCAR-8 ovarian?
Result: > 100 µM

Task: TGI of CC(C)CCCC(C)[C@H]1CCC(C2C[C@@H](O)[C@@H]3CC(O)[C@@H](O)C[C@]3(CO)C2=O)[C@]1(C)CCO (stereo not given in full) on OVCAR-8 ovarian?
Result: > 76.1 µM

---

Measured TGI of individual entries
# Tested on: NCI/ADR-RES ovarian
# Protocol description: NCI tumour cell line growth inhibition, 48 h
Please respond with the number in µM and leave the unit unwritten.

>  <Compound>
COc1cc(C2CC(c3ccc(Nc4nc(NCCO)nc(NCCO)n4)cc3)=NN2c2cc(Cl)cc(Cl)c2)cc(OC)c1OC (stereo not given)

>  <Measurement units>
µM

>  <TGI>
12.8

$$$$
>  <Compound>
CCOc1c(Br)cc(Br)cc1C=C(C#N)C#N

>  <Measurement units>
µM

>  <TGI>
4.98

$$$$

Task: Query: TGI; subject: C[C@@H]1C[C@@H]([C@H](O)CC2CC(=O)NC(=O)C2)C(=O)[C@@H](C)C1
Result: 9.16

---

# System: SNB-19 CNS
# Protocol description: NCI tumour cell line growth inhibition, 48 h
This section presents compounds with their documented TGI values.

Illustrative cases are given below, each with its answer.
>  <Compound>
O=C(O)C(Cc1ccccc1)NCc1c(O)ccc2c(-c3ccccc3)cc(=O)oc12 (configuration not stated)

>  <TGI>
> 100 µM

$$$$
>  <Compound>
CCC[CH2][Sn-]([CH2]CCC)([CH2]CCC)[O]C(=O)C(C)C

>  <TGI>
0.351 µM

$$$$
>  <Compound>
COC(=O)c1c2c(cc3c1CC1(Cc4cc5c(c(C=O)c4C1)CCC5)C3)CCC2 (configuration not stated)

>  <TGI>
> 100 µM

$$$$
>  <Compound>
COc1cc(/C=N/NC(=O)c2cnn3c2NC(c2ccccc2)C3)ccc1OC1CCCC1 (configuration not stated)

>  <TGI>
10.9 µM

$$$$

Task: For COC1(CC[C@@H](C)COC2OC(CO)C(O)C(O)C2O)OC2C[C@H]3[C@@H]4CC[C@H]5C[C@@H](OC6OC(CO)C(OC7OC(CO)C(O)C(O)C7O)C(O)C6OC6OC(C)C(O)C(O)C6O)[C@H](O)C[C@]5(C)[C@H]4CC[C@]3(C)C2[C@@H]1C (some centres not stated) , what is its reported TGI?
Result: 3.55 µM

Task: Could you share which TGI value was measured for CCCCCCCC/C=C/CCCCCCCC1=NC(C)(C)CN1C(C)(C)CO ?
Result: 6.55 µM

Task: Item under review: CC(=O)C(=Cc1cn(C)c(=O)n(C)c1=O)C(C)=O . Reported TGI?
Result: 414 µM

Task: Would you kindly share the measured TGI for CCCCCC[C@H]([C@H](C)O)n1cnc2c(N)ncnc21 ?
Result: > 100 µM

Task: # get_value(readout='TGI', item= C[s+]1c2ccccc2c2ccccc21 )
Result: > 100 µM

Task: What does the data say about its TGI? Entry: COc1cc2c(cc1OCCNC(=O)/C=C1\C[C@H]3C=Nc4cc(OCc5ccccc5)c(OC)cc4C(=O)N3C1)N=C[C@@H]1CCCN1C2=O
Result: > 100 µM

Task: Suppose we examine the compound C=C1C(=O)O[C@@H]2/C=C(/C)[C@@H](OC(C)=O)C/C=C(\C)C(O)[C@@H](OC(=O)/C(C)=C\C)C12 (some centres not stated) ; what TGI value has been reported?
Result: > 100 µM

Task: Which TGI is listed for COc1ccccc1NC(=O)C(=O)C(C(=O)c1ccccc1F)C1OC(=O)c2ccccc21 (configuration not stated) ?
Result: 64 µM

---

Each item that follows carries a reported TGI.
# Tested on: DMS 273 small cell lung
# Protocol description: NCI tumour cell line growth inhibition, 48 h

>  <Compound>
O=c1[nH]ccc(CNC23CC4CC(CC(C4)C2)C3)c1O

>  <Measurement label>
TGI

>  <Meas value>
> 100 µM

$$$$
>  <Compound>
Cc1cccc(C)c1NC(=O)C(=O)Cc1nc2ccccc2s1

>  <Measurement label>
TGI

>  <Meas value>
> 100 µM

$$$$
>  <Compound>
COC(=O)C1CC(c2ccc(OC)c(OC)c2)OC1=O (mixture of isomers)

>  <Measurement label>
TGI

>  <Meas value>
> 100 µM

$$$$
>  <Compound>
C1=CC(=P(c2ccccc2)(c2ccccc2)c2ccccc2)C=C1

>  <Measurement label>
TGI

>  <Meas value>
26.4 µM

$$$$
>  <Compound>
Cc1cc2c(c(C(=O)O)c1C)-c1cccc(Cl)c1C2=O

>  <Measurement label>
TGI

>  <Meas value>
> 100 µM

$$$$

Okay, now this compound:
Task: Name the recorded TGI for N/N=C(/Cc1ccccc1)NNO .
Result: > 100 µM
